Reference source for all entries: paper PMC9478924

Target: T1, EVA-P974 (UniProt A0A023FDY8 22-118, biotin on the Avi-tag (Bir-A ligase))
T1 sequence (looked up): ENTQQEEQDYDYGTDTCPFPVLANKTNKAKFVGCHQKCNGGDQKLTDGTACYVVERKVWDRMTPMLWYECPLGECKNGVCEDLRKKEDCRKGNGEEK
Test: SPR
pKd: −log10 of the molar value.
Classify as follows. Reported pKd greater than or equal to 9: YES. Reported pKd below: NO.

Please tell me: is the binder CCL1 (ligand, human, UniProt P22362 24-96, looked up) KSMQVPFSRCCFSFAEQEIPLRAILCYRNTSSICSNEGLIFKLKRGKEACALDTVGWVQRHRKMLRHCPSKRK at or over 9 in terms of pKd?
NO

Please tell me: is the binder CCL16 (ligand, human, UniProt O15467 24-120, looked up) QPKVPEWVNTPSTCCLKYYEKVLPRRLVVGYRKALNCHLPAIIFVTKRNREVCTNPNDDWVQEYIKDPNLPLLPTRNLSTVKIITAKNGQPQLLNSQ at or over 9 in terms of pKd?
YES

Please tell me: is the binder CCL8 (ligand, human, UniProt P80075 24-99, looked up) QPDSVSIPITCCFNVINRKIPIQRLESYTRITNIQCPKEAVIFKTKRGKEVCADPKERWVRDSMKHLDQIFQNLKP at or over 9 in terms of pKd?
YES

Please tell me: is the binder CCL17 (ligand, human, UniProt Q92583 24-94, looked up) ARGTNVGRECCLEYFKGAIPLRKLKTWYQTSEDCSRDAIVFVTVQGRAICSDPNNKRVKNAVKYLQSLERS at or over 9 in terms of pKd?
NO
